- method-description: Retention time of the compound by RP-HPLC analysis
- Format: physicochemical

smiles-code: CC[C@H](C)[C@H](NC(=O)[C@H](CCCNC(=N)N)NC(=O)[C@@H](NC(=O)[C@H](CCCNC(=N)N)NC(=O)CNC(=O)[C@H]1CCCN1C(=O)[C@H](CCCNC(=N)N)NC(=O)[C@@H](NC(=O)[C@H](CCCNC(=N)N)NC(=O)[C@@H](NC(=O)[C@@H](N)CCCNC(=N)N)[C@@H](C)CC)[C@@H](C)CC)[C@@H](C)CC)C(=O)N[C@@H](CCCNC(=N)N)C(N)=O
Retention_time (min): 11.367

----------
MIC listing for selected compounds.
- Test system: Staphylococcus epidermidis
- method-description: Antibacterial activity against Staphylococcus epidermidis ATCC 12228 assessed as inhibition of bacterial growth incubated for 18 hrs by microbroth dilution assay
- Format: functional
Where a SMILES comes first, the peptide text is derived from it. Bridges are numbered along the chain shown (N, C = ends). [ ]: non-standard residue; d: D form. The star is where a group is joined. Ileψ(thiazoline)Cys = CC[C@H](C)[C@H](N)C1=N[C@H](C(=O)*)CS1; dOrn = NCCC[C@@H](N)C(=O)O

compound: NCCCC[C@H](NC(=O)[C@H](Cc1c[nH]c2ccccc12)NC(=O)[C@H](CCCCN)NC(=O)[C@H](Cc1c[nH]c2ccccc12)NC(=O)[C@H](CCCCN)NC(=O)CNC(=O)[C@H]1CCCN1C(=O)[C@H](CCCCN)NC(=O)[C@H](Cc1c[nH]c2ccccc12)NC(=O)[C@H](CCCCN)NC(=O)[C@H](Cc1c[nH]c2ccccc12)NC(=O)[C@@H](N)CCCCN)C(N)=O
unit-abbrev: µM
MIC: 4
//
compound: NCCCC[C@H](NC(=O)CNC(=O)[C@H]1CCCN1C(=O)[C@H](CCCCN)NC(=O)[C@H](Cc1c[nH]c2ccccc12)NC(=O)[C@H](CCCCN)NC(=O)[C@H](Cc1c[nH]c2ccccc12)NC(=O)[C@H](CCCCN)NC(=O)[C@@H](N)Cc1c[nH]c2ccccc12)C(=O)N[C@@H](Cc1c[nH]c2ccccc12)C(=O)N[C@@H](CCCCN)C(=O)N[C@@H](Cc1c[nH]c2ccccc12)C(=O)N[C@@H](CCCCN)C(=O)N[C@@H](Cc1c[nH]c2ccccc12)C(N)=O (H-WKWKWK[dP]GKWKWKW-NH2)
unit-abbrev: µM
MIC: 4
//
compound: N=C(N)NCCC[C@@H](NC(=O)CNC(=O)[C@H]1CCCN1C(=O)[C@@H](CCCNC(=N)N)NC(=O)[C@@H](Cc1ccccc1)NC(=O)[C@@H](CCCNC(=N)N)NC(=O)[C@@H](Cc1ccccc1)NC(=O)[C@@H](CCCNC(=N)N)NC(=O)[C@H](N)Cc1ccccc1)C(=O)N[C@H](Cc1ccccc1)C(=O)N[C@H](CCCNC(=N)N)C(=O)N[C@H](Cc1ccccc1)C(=O)N[C@H](CCCNC(=N)N)C(=O)N[C@H](Cc1ccccc1)C(N)=O
unit-abbrev: µM
MIC: 2
//
compound: N=C(N)NCCC[C@H](NC(=O)CNC(=O)[C@H]1CCCN1C(=O)[C@H](CCCNC(=N)N)NC(=O)[C@H](Cc1ccccc1)NC(=O)[C@H](CCCNC(=N)N)NC(=O)[C@@H](N)Cc1ccccc1)C(=O)N[C@@H](Cc1ccccc1)C(=O)N[C@@H](CCCNC(=N)N)C(=O)N[C@@H](Cc1ccccc1)C(N)=O
unit-abbrev: µM
MIC: 16
//
compound: CC[C@H](C)[C@H](N)C1=N[C@H](C(=O)N[C@@H](CC(C)C)C(=O)N[C@H](CCC(=O)O)C(=O)N[C@H](C(=O)N[C@H]2CCCCNC(=O)[C@H](CC(N)=O)NC(=O)[C@@H](CC(=O)O)NC(=O)[C@H](Cc3cnc[nH]3)NC(=O)[C@@H](Cc3ccccc3)NC(=O)[C@H]([C@@H](C)CC)NC(=O)[C@@H](CCCN)NC2=O)[C@@H](C)CC)CS1 [BACITRACIN] ({Ileψ(thiazoline)Cys}-L[dE]IK[dOrn]I[dF]H[dD]N; lactam 4-C)
unit-abbrev: µM
MIC: 16
